Can you tell me cell shape (Z-score) for the items I'm about to list?
tested on: human monocyte-derived macrophages (polarized); experiment: cell shape (eccentricity) Z-score vs DMSO control; higher = more elongated, M2-like morphology; conditions: 5 µM; 24 h; macrophage state: M2-polarized (IL-4 + IL-13), cytokines present during treatment
One number for each entry.

Would you be so kind as to report cell shape (Z-score) for each listed record?
1. C[C@H]1CN([C@@H](C)CO)C(=O)Cc2cc(NC(=O)CCC(F)(F)F)ccc2O[C@H]1CN(C)S(=O)(=O)c1ccc(Cl)cc1
2. CN(C)CCC=C1c2ccccc2COc2ccccc21
3. C=C(NC(=O)C(=C)NC(=O)c1csc(C2=N[C@@H]3c4csc(n4)[C@H]4NC(=O)c5csc(n5)[C@H]([C@](C)(O)[C@@H](C)O)NC(=O)[C@H]5CSC(=N5)/C(=C/C)NC(=O)[C@H]([C@@H](C)O)NC(=O)c5csc(n5)[C@]3(CC2)NC(=O)[C@H](C)NC(=O)C(=C)NC(=O)[C@H](C)NC(=O)[C@H]([C@@H](C)CC)N[C@@H]2C=Cc3c([C@H](C)O)cc(nc3[C@H]2O)C(=O)O[C@@H]4C)n1)C(N)=O [Thiostrepton.2mM]
4. O=C(CCCc1ccc(-c2ccccc2F)cc1)Nc1ccc(O)cc1

Response:
1. -11
2. -5.83
3. -5.55
4. -9.79

Would you be so kind as to report cell shape (Z-score) for each listed record?
1. Cc1nc(Nc2n[nH]c3c2CN(C(=O)N[C@H](CN(C)C)c2ccccc2)C3(C)C)c2sccc2n1
2. COCCCC/C(=N\OCCN)c1ccc(C(F)(F)F)cc1

Response:
-7.51
-6
